target_entity: sEH (Homo sapiens, UniProt P34913)
Sequence (P34913 1-555): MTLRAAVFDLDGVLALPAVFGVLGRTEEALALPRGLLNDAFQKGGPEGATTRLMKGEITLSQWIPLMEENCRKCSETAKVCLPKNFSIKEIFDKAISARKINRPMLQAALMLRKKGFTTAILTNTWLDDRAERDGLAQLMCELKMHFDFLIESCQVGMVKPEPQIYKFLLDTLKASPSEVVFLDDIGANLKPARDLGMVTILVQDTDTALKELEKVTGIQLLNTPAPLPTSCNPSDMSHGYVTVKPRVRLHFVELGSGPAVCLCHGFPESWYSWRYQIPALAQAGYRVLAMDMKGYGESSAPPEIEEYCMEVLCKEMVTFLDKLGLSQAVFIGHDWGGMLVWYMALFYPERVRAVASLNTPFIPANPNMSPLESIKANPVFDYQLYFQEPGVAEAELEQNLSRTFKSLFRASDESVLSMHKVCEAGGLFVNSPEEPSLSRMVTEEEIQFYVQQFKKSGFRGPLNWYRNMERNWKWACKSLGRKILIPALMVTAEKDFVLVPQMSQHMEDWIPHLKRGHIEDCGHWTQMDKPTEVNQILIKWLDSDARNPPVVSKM
reported_endpoint: IC50 (nM)
Report the figure in nM without appending any unit label.

Give the reported value of IC50 for this record: Cc1cc(OCc2nc3ccccc3[nH]2)ccc1NC(=O)Nc1ccc(Cl)c(Cl)c1
55

====

Tested on: 5-LOX product formation in PMNL
protocol: 5-LOX product formation in PMNL stimulated with A23187 (cell-based)
Parameters: species or system human
condition_details: Homo sapiens, PMNL; at 1 µM; read-out: Effect on 5-LOX product formation in PMNL, % inhibition
reported_endpoint: inhibition at 1 µM (%)
The answer is to be given in %; state only the numeric part.

Field: example entries. Status: answers known.
> print(dat)
                                   compound   reported.endpoint  observed.measurement
1  Cc1cccc(NC(=O)Nc2ccc(OCc3nc4ccccc4s3)cc2C)c1 [Compound I12-3]  inhibition at 1 µM                   100
2  Cc1cc(OCc2nc3ccccc3s2)ccc1NC(=O)Nc1cccc2ccccc12 [Compound I12-4]  inhibition at 1 µM                    70

Would you kindly look at the next entry?
Tell me measured inhibition at 1 µM for Cc1cccc(OCC(=O)Nc2ccc(OCc3nc4ccccc4s3)cc2C)c1 [Compound I12-11, reference compound] please.
97

====

target_entity: isolated 5-LOX (Homo sapiens, UniProt P09917)
Construct: made in house; host or cells: E. coli
Sequence (P09917 whole entry): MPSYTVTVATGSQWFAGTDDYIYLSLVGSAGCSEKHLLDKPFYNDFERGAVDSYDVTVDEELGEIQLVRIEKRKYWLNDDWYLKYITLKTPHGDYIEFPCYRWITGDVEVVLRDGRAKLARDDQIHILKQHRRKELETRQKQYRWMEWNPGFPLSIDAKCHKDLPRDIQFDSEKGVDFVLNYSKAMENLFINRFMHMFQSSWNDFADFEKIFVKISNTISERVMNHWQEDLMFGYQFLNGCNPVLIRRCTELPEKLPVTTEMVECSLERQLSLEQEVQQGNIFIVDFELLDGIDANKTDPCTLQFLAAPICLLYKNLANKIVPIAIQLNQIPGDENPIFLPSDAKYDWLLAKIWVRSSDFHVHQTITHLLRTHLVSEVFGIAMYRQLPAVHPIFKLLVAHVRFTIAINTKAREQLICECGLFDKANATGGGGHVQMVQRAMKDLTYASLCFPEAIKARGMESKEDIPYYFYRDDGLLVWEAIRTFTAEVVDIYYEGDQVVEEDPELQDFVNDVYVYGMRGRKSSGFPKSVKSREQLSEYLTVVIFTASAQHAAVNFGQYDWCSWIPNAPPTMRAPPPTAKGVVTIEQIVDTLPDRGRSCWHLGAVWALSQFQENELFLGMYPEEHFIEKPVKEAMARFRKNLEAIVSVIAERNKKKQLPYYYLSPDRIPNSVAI
protocol: FLAP-independent cell-free enzymatic assay with isolated recombinant 5-LOX
Assay type: biochemical
condition_details: at 10 µM; read-out: Effect on isolated 5-LOX, % inhibition
Method: In both assays, product quantification was conducted with RP-HPLC and UV detection after solid phase extraction and addition of 200 ng prostaglandin B1 as internal standard.
reported_endpoint: inhibition at 10 µM (%)
Your answer is read as %, so omit the unit and give the number.

Tell me measured inhibition at 10 µM for S=C(Nc1ccc(OCc2nc3ccccc3[nH]2)cc1)Nc1ccc(Cl)c(Cl)c1 please.
87

State its inhibition at 10 µM: Cc1cc(OCc2nc3ccccc3[nH]2)ccc1NC(=S)Nc1ccc(Cl)c(Cl)c1
65

====

target_entity: UniProt:P20292
Sequence (P20292 1-161): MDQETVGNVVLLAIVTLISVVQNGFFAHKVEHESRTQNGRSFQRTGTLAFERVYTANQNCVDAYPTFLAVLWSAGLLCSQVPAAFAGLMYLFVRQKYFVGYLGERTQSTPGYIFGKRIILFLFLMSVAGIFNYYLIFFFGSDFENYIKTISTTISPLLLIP
condition_details: active = inhibition of product formation in cells without 5-LOX activity in the cell-free assay
reported_endpoint: Effect on FLAP activity

As a guide, the following entries are already answered.
> print(dat)
                                   compound   target.entity  observed.measurement
1  Cc1cc(OCc2nc3ccccc3n2C(=O)OC(C)(C)C)ccc1NC(=S)Nc1ccc(Cl)c(Cl)c1  UniProt:P20292              inactive
2  Cc1cc(OCc2nc3ccccc3s2)ccc1NC(=O)Nc1cccc2ccccc12  UniProt:P20292                active
3  Cc1cccc(NC(=O)Nc2ccc(OCc3nc4ccccc4s3)cc2C)c1  UniProt:P20292                active
4  Cc1cc(OCc2nc3ccccc3s2)ccc1NC(=O)COc1ccc(Cl)cc1Cl [Compound I12-6, reference compound]  UniProt:P20292              inactive
5  COc1ccc(NC(=O)Nc2ccc(CCc3nc4ccccc4[nH]3)cc2)cc1  UniProt:P20292              inactive
6  O=C(Nc1ccc(Cl)cc1)Nc1ccc(CCc2nc3ccccc3[nH]2)cc1  UniProt:P20292              inactive
7  Cc1cc(OCc2nc3ccccc3s2)ccc1NC(=O)c1ccc(Cl)cc1 [Compound I12-12, reference compound]  UniProt:P20292              inactive

# return recorded Effect on FLAP activity for entry Cc1cc(OCc2nc3ccccc3s2)ccc1NC(=O)c1cccc(F)c1 [Compound I12-5, reference compound]
inactive

====

target_entity: sEH (Homo sapiens, UniProt P34913)
protocol: biochemical
condition_details: read-out: Effect on sEH activity, % inhibition
reported_endpoint: inhibition at 0.1 µM (%)
A number alone suffices; assume %.

Please give measured inhibition at 0.1 µM of the following entry: O=C(Nc1ccccc1)Nc1ccc(CCc2nc3ccccc3[nH]2)cc1 [Compound L3]
30

Find the measured inhibition at 0.1 µM of O=C(Nc1ccc(CCc2nc3ccccc3[nH]2)cc1)Nc1cccc(Cl)c1 [Compound L2] and report it.
50

// fetch inhibition at 0.1 µM given entry O=C(Nc1ccc(F)cc1)Nc1ccc(CCc2nc3ccccc3[nH]2)cc1 [Compound L6]
55

Give the value of inhibition at 0.1 µM reported for the following: COc1cc(/C=N/NC(=O)c2ccc(CSc3nc4ccccc4s3)o2)cc(Br)c1O [Compound I12-8, reference compound]
30
